- PROTOCOL_NOTES: Enzymatic stability study in homogenized Caco-2 cells
- Format: in vitro ADME
- STATED_CONDITIONS: human, pH 7.4; Caco-2 cell homogenate, 37° C., 100 μM
ASSAY_METRIC: half-life at 100 μM (min)
Number only, in min; omit the unit.

Which value of half-life at 100 μM has been reported for Cc1cc(O)cc(C)c1C[C@H](N)C(=O)N1CCC[C@H]1C(=O)N[C@@H](Cc1c[nH]c2ccccc12)C(=O)N[C@@H](Cc1ccccc1)C(N)=O [(Dmt^1)Endo, reference compound] in the records?
8.98

---

- TESTED_TARGET: μ-opioid receptor (Homo sapiens, UniProt P35372)
- Construct: SH-SY5Y cells endogenously expressing μ- and δ-opioid receptors; endogenous in cells
- Sequence (P35372 whole entry): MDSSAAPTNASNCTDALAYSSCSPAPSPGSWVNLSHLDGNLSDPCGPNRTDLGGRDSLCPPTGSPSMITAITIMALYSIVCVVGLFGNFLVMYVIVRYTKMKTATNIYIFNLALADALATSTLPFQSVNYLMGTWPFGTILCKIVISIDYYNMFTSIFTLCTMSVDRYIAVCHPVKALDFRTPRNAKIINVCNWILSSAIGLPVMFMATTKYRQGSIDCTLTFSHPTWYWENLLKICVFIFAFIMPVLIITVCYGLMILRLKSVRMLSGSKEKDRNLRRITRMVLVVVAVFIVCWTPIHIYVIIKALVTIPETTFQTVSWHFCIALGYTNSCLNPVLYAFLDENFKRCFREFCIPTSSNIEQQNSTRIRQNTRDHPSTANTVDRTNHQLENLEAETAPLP
- PROTOCOL_NOTES: Whole cell-based binding assay, displacement of 3H-DAMGO
Where a SMILES comes first, the peptide text is derived from it. [ ]: non-standard residue; d: D form. ξ: configuration not given here. Dmt = Cc1cc(O)cc(C)c1C[C@H](N)C(=O)O; ξGly(decyl) = CCCCCCCCCCC(N)C(=O)O; ξAoc(2) = CCCCCCC(N)C(=O)O
Listing of recorded Ki by entry.
Number only, in nM; omit the unit.

| MOLECULE | TESTED_TARGET | READOUT_UNIT | Ki |
| --- | --- | --- | --- |
| CCCCCCCCCCC(N)C(=O)N[C@@H](Cc1c(C)cc(O)cc1C)C(=O)N1CCC[C@H]1C(=O)N[C@@H](Cc1c[nH]c2ccccc12)C(=O)N[C@@H](Cc1ccccc1)C(N)=O (stereo partly drawn) [Compound 9] (H-[ξGly(decyl)][Dmt]PWF-NH2) | μ-opioid receptor (Homo sapiens, UniProt P35372) | nM | 0.735 |
| CCCCCCC(N)C(=O)N[C@@H](Cc1ccc(O)cc1)C(=O)N1CCC[C@H]1C(=O)N[C@@H](Cc1c[nH]c2ccccc12)C(=O)N[C@@H](Cc1ccccc1)C(N)=O (stereo partly drawn) [Compound 1] (H-[ξAoc(2)]YPWF-NH2) | μ-opioid receptor (Homo sapiens, UniProt P35372) | nM | 2.45 |

Query the reported Ki for μ-opioid receptor (Homo sapiens, UniProt P35372); item: CCCCCCC(N)C=N[C@@H](Cc1ccc(O)cc1)C(=O)N1CCC[C@H]1C(=O)N[C@@H](Cc1c[nH]c2ccccc12)C(=O)N[C@@H](Cc1ccccc1)C(N)=O (stereo partly drawn) [Compound 10]
42.4

These measurements were taken from patent US20100130581A1.
